target: human Peroxisome Proliferator-activated Receptor alpha (PPARa), PPARA (gene 5465) (UniProt Q07869); assay: ERF_US_NR_hPPARA: Eurofins (ERF) Nuclear Receptor (NR) Cell Based Protein-Protein Interaction LeadHunter Assay for human Peroxisome Proliferator-activated Receptor alpha (PPARa) Agonism
Sequence (Q07869 whole entry, looked up): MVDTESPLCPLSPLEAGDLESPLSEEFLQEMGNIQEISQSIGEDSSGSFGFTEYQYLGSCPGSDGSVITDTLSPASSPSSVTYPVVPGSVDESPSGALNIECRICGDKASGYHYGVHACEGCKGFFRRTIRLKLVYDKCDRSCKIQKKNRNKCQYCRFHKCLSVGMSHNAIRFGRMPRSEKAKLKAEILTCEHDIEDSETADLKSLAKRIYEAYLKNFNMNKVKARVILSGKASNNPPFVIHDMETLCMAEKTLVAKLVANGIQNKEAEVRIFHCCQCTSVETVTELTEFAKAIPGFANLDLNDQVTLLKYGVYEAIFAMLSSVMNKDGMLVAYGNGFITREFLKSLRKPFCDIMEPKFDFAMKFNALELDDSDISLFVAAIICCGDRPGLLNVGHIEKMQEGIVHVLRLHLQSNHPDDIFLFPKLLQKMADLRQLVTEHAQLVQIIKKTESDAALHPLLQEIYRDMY
Inconclusive results are not listed. Active and inactive are the calls of the source. How the source made its calls: active means hit-call score of the fitted dose curve at least 0.9, where 1 is the maximum; inconclusive means response in the unintended direction; inactive means score below 0.9.
EXPERIMENTAL READOUT: AC50

smiles_input=O=C(O)C(F)(F)C(F)(F)C(F)(F)C(F)(F)C(F)(F)C(F)(F)C(F)(F)C(F)(F)Cl experimental_readout=AC50 recorded_result=inactive
smiles_input=CC(C)(Oc1ccc(C(=O)c2ccc(Cl)cc2)cc1)C(=O)O experimental_readout=AC50 recorded_result="50 µM (active)"
smiles_input=O=C(O)C(F)(F)C(F)(F)C(F)(F)C(F)(F)C(F)(F)C(F)(F)C(F)F experimental_readout=AC50 recorded_result=inactive
smiles_input=O=C(O)C(F)(F)OC(F)(F)C(F)(F)OC(F)(F)F experimental_readout=AC50 recorded_result=inactive
smiles_input=O=C(CC(=O)C(F)(F)C(F)(F)C(F)(F)F)c1cccs1 experimental_readout=AC50 recorded_result="12.6 µM (active)"
smiles_input=O=S(=O)(O)C(F)(F)C(F)(F)C(F)(F)C(F)(F)C(F)(F)C(F)(F)C(F)(F)C(F)(F)F experimental_readout=AC50 recorded_result=inactive
